# System: HCC-2998 colon
# MEASUREMENT DESCRIPTION: NCI tumour cell line growth inhibition, 48 h
ASSAY METRIC: TGI

>  <MOLECULE>
COc1cccc(C(=O)NNc2nc(Cl)nc(N3CCN(C(c4ccccc4)c4ccccc4)CC3)n2)c1

>  <RESULT>
3.43 µM

$$$$
>  <MOLECULE>
COc1ccc2nc3cccc([N+](=O)[O-])c3c(NCCC(=O)O)c2c1

>  <RESULT>
> 10 µM

$$$$
>  <MOLECULE>
O=C1NC(c2ccc3ccccc3c2)Nc2ccccc21 (stereo not given)

>  <RESULT>
> 100 µM

$$$$
>  <MOLECULE>
O=C(/C=C(/C=C/c1cccc2[nH]ccc12)OB(F)F)/C=C/c1cccc2[nH]ccc12

>  <RESULT>
3.63 µM

$$$$
>  <MOLECULE>
CCCCCCCCCN=C(N)c1ccc(N2CCN(c3ccc(C(N)=NCCCCCCCCC)cc3)CC2)cc1

>  <RESULT>
6.14 µM

$$$$
>  <MOLECULE>
O=C(Cc1cc(O)ccc1O)NO

>  <RESULT>
> 100 µM

$$$$
>  <MOLECULE>
Nc1nc(N)c2cc(S(=O)(=O)c3ccc4ccccc4c3)ccc2n1

>  <RESULT>
> 100 µM

$$$$
>  <MOLECULE>
COc1ccc(-c2cc(=O)c3c(OC)c4ccoc4c(/C=C/C=O)c3o2)cc1

>  <RESULT>
27.8 µM

$$$$
>  <MOLECULE>
O=C(O)C12C3CCC(C3)C1(C(=O)O)C1CCC2C1 (stereo not given)

>  <RESULT>
> 100 µM

$$$$
>  <MOLECULE>
CC(=O)OC1C(O)C(C)OC(OC2C(OC(=O)C3CCC4C(C3)OC3(CC(OC(=O)/C=C/c5ccccc5)C(C)CO3)C43CO3)OC(C)C(O)C2OC(C)=O)C1O (stereo not given)

>  <RESULT>
0.0148 µM

$$$$

----------
# System: SNB-19 CNS
# MEASUREMENT DESCRIPTION: NCI tumour cell line growth inhibition, 48 h
Examples of compounds with documented GI50 follow.

>  <COMPOUND>
COc1ccccc1CNCCCN1C(=O)c2ccc3c4c(ccc(c24)C1=O)C(=O)N(CCCNCCCCNCCCN)C3=O

>  <GI50>
0.574 µM

$$$$
>  <COMPOUND>
CCOC(=O)c1c(-c2ccccc2)n2c(=O)cc(C)c3c(O)c(O)cc1c32

>  <GI50>
11.4 µM

$$$$
>  <COMPOUND>
O=C(O)c1ccc(CSc2nc3ccccc3[nH]2)cc1

>  <GI50>
> 100 µM

$$$$
>  <COMPOUND>
COc1ccc2c(c1)OCC1c3cc(OC)c4ccccc4c3OC21 (stereo not given)

>  <GI50>
23.9 µM

$$$$
>  <COMPOUND>
CC(C)c1cnc(-c2cc(Cl)ccc2F)cc1Nc1ccncc1C(=O)NC(CO)CO

>  <GI50>
15.6 µM

$$$$

----------
The entries below come with measured TGI values attached.
# Tested on: HOP-62 NSCLC
# MEASUREMENT DESCRIPTION: NCI tumour cell line growth inhibition, 48 h

>  <COMPOUND>
CCOC(=O)/C(=C\c1c[nH]c2ccccc12)P(=O)(OCC)OCC

>  <TGI>
> 100 µM

$$$$
>  <COMPOUND>
NS(=O)(=O)c1ccc(N=Nc2c(O)[nH]c3ccc(C(=O)NCCCn4ccnc4)cc23)cc1

>  <TGI>
> 25 µM

$$$$
>  <COMPOUND>
c1cc2c(cc1C1OCC3C(c4ccc5c(c4)OCO5)OCC13)OCO2 (centres undefined)

>  <TGI>
> 100 µM

$$$$
>  <COMPOUND>
CC(=O)OC(C(=O)[O][Ge]([CH3])([CH3])[CH3])c1ccccc1 (centres undefined)

>  <TGI>
> 100 µM

$$$$
>  <COMPOUND>
CC(=O)NC1C(OCc2ccccc2)OC(CO)C(O)C1OCC(=O)NC(C(=O)NC(CCC(=O)NCCCCCC(=O)Nc1ccc2c(c1)CN1C(=O)c3ccccc3C1=N2)C(N)=O)C(C)C (centres undefined)

>  <TGI>
40.8 µM

$$$$
>  <COMPOUND>
OC1C2CCCCN2C[C@@H](O)[C@H]1O (some centres undefined)

>  <TGI>
> 100 µM

$$$$
>  <COMPOUND>
CC(C)CCNC(=O)c1ccc(CNC(=O)/C=C/c2ccc3ccccc3c2)cc1

>  <TGI>
> 100 µM

$$$$
>  <COMPOUND>
Cc1[nH]c(C(=O)Nc2cccc(OC3CCNCC3)c2)c(Cl)c1Cl

>  <TGI>
4.53 µM

$$$$
>  <COMPOUND>
CCCCC(CC)C(=O)Oc1ccc(C(=O)c2ccccc2)c(O)c1 (centres undefined)

>  <TGI>
> 100 µM

$$$$
